System: THREE FUNGI
assay notes: MIC test against three fungi in Mycophile Broth, pH 5.0, read after 8 days (Table VII)
Assay type: cell-based
test settings: 192 h, Aspergillus niger, serial dilutions from 50 ppm, read after 8 days of incubation, read-out: MIC ANIG
Please respond with reported MIC for every item in the list.
One number for each entry, in µg/mL.

Query: Please state recorded MIC (tested on THREE FUNGI) of `C[C@@H](NC(=O)OC(C)(C)C)C(=O)N[C@H](C)C(=O)OCC#CI`
Reply: 50

Below are some compounds; for each one, tell me its MIC.
1. O=C(CNC(=O)c1ccccc1)OCC#CI
2. CC(C)(C)OC(=O)N[C@@H](CSCc1ccccc1)C(=O)OCC#CI

Reply:
[1.6, 50]

###

Please respond with reported log10 of MIC for every item in the list.
System: Staphylococcus aureus (SAUR)
assay notes: Minimum inhibitory concentration (MIC), broth two-fold serial dilution test
test settings: Staphylococcus aureus, read-out: MIC (G+) SAUR, M9G (minimal salts media with glucose); Table IIIa
Structures can show the parent of a compound that is named as a salt.
Give log10 of MIC, with MIC taken in µg/mL.

Query: Please state recorded log10 of MIC (tested on Staphylococcus aureus (SAUR)) of N[C@@H](COCc1ccccc1)C(=O)OCC#CI [Compound 9, trifluoroacetate]
Reply: 2.70

Below are some compounds; for each one, tell me its log10 of MIC.
1. C[C@@H](OCc1ccccc1)[C@H](NC(=O)OC(C)(C)C)C(=O)OCC#CI [Compound 5]
2. C[C@@H](N)C(=O)OCC#CI [Compound 24, trifluoroacetate]
3. C[C@H](NC(=O)OC(C)(C)C)C(=O)OCC#CI [Compound 2]
4. CC(C)(C)OC(=O)N[C@@H](CSCc1ccccc1)C(=O)OCC#CI [Compound 4]
5. C[C@@H](NC(=O)OC(C)(C)C)C(=O)OCC#CI [Compound 23]
6. CC(C)(C)OC(=O)N[C@@H](COCc1ccccc1)C(=O)OCC#CI [Compound 3]

Reply:
[1.80, 2.10, 1.70, 1.40, 1.80, 1.40]

###

Tested on: Septoria nodorum (SEP)
assay notes: In-vitro plant fungicide test
Type: cell-based
test settings: Parastagonospora nodorum, 1.5 ppm; Table IVb; read-out: % Control at (ppm) indicated SEP
Structures can show the parent of a compound that is named as a salt.
property measured: inhibition of growth at 1.5 ppm (%)
One number for each entry, in %.

Query: Look at this molecule and give its reported inhibition of growth at 1.5 ppm. CC(=O)NCC(=O)OCC#CI [Compound 28, N-acetylglycine iodopropargyl ester]
Reply: 0

Query: Look at this molecule and give its reported inhibition of growth at 1.5 ppm. O=C(CN1C(=O)c2ccccc2C1=O)OCC#CI [Compound 30, N-phthaloylglycine iodopropargyl ester]
Reply: 100

Below are some molecules; for each one, tell me its inhibition of growth at 1.5 ppm.
1. CC(C)(C)OC(=O)NCC(=O)OCC#CI [Compound 1]
2. C[C@H](N)C(=O)N[C@@H](COCc1ccccc1)C(=O)OCC#CI [Compound 19, trifluoroacetate]

Reply:
[0, 50]

###

Please respond with reported inhibition of growth at 0.8 ppm for every item in the list.
System: Rhizoctonia solani (RHI)
assay notes: In-vitro plant fungicide test
Format: cell-based
test settings: Rhizoctonia solani; .8 ppm; Table IVb; read-out: % Control at (ppm) indicated RHI
Counter-ions that a name gives are not always drawn.
Numbers only, in %.

Record excerpt, results attached:
Query: Look at this molecule and give its reported inhibition of growth at 0.8 ppm. C[C@H](N)C(=O)N[C@@H](COCc1ccccc1)C(=O)OCC#CI [Compound 19, trifluoroacetate]
Reply: 0

Query: Look at this molecule and give its reported inhibition of growth at 0.8 ppm. `CC(=O)NCC(=O)OCC#CI`
Reply: 0

Query: Look at this molecule and give its reported inhibition of growth at 0.8 ppm. `O=C(CN1C(=O)c2ccccc2C1=O)OCC#CI`
Reply: 0

Consider the additional molecule presented here.
Query: Look at this molecule and give its reported inhibition of growth at 0.8 ppm. `CC(C)(C)OC(=O)NCC(=O)OCC#CI`
Reply: 100

###

Test system: 8 FUNGI
assay notes: Microbicides secondary test against 8 fungi on Mycophile Agar at pH 5.0 (Table VI)
Type: cell-based
Design: key: 1= no growth; 0= growth of the indicated fungi at dose indicated in ppm
test settings: Chaetomium globosum, 25 PPM
property measured: CGLO growth
One number for each entry.

Record excerpt, results attached:
Query: Look at this compound and give its reported CGLO growth. `O=CNCC(=O)OCC#CI`
Reply: 1

Query: Look at this compound and give its reported CGLO growth. `C/C=C/C=C/C(=O)NCC(=O)OCC#CI`
Reply: 1

Query: Look at this compound and give its reported CGLO growth. `O=C(CNC(=O)OCc1ccccc1)OCC#CI`
Reply: 1

Below are some compounds; for each one, tell me its CGLO growth.
1. CC(=O)NCC(=O)OCC#CI
2. O=C(CNC(=O)c1ccccc1)OCC#CI
3. O=C(CN1C(=O)c2ccccc2C1=O)OCC#CI

Reply:
[1, 1, 1]

Query: Look at this compound and give its reported CGLO growth. `CCCCCCCC(=O)NCC(=O)OCC#CI`
Reply: 1

###

Test system: Escherichia coli (ECOL)
assay notes: Minimum inhibitory concentration (MIC), broth two-fold serial dilution test
test settings: Escherichia coli, read-out: MIC (G-) ECOL, M9G (minimal salts media with glucose); Table IIIa
Where a name gives a salt, the structure may show the parent alone.
Please respond with reported MIC for every item in the list.

Query: Please state recorded MIC (tested on Escherichia coli (ECOL)) of N[C@@H](CSCc1ccccc1)C(=O)OCC#CI [Compound 10, trifluoroacetate]
Reply: > 100 µg/mL

Query: Please state recorded MIC (tested on Escherichia coli (ECOL)) of N[C@@H](COCc1ccccc1)C(=O)OCC#CI [Compound 9, trifluoroacetate]
Reply: 64 µg/mL

Query: Please state recorded MIC (tested on Escherichia coli (ECOL)) of C[C@@H](OCc1ccccc1)[C@H](N)C(=O)OCC#CI [Compound 11, trifluoroacetate]
Reply: > 100 µg/mL

Next:
Query: Please state recorded MIC (tested on Escherichia coli (ECOL)) of C[C@@H](OCc1ccccc1)[C@H](NC(=O)OC(C)(C)C)C(=O)OCC#CI [Compound 5]
Reply: > 100 µg/mL

###

System: UST
assay notes: In-vitro plant fungicide test
Format: cell-based
test settings: 1.5 ppm; Table IVb; read-out: % Control at (ppm) indicated UST
Where a name gives a salt, the structure may show the parent alone.
Please respond with reported inhibition of growth at 1.5 ppm for every item in the list.
Respond with the figure and its unit, in that order.

Record excerpt, results attached:
Query: Look at this compound and give its reported inhibition of growth at 1.5 ppm. `O=C(CN1C(=O)c2ccccc2C1=O)OCC#CI`
Reply: 0%

Query: Look at this compound and give its reported inhibition of growth at 1.5 ppm. C[C@H](N)C(=O)N[C@@H](COCc1ccccc1)C(=O)OCC#CI [Compound 19, trifluoroacetate]
Reply: 0%

Query: Look at this compound and give its reported inhibition of growth at 1.5 ppm. `CC(C)(C)OC(=O)NCC(=O)OCC#CI`
Reply: 100%

Next:
Query: Look at this compound and give its reported inhibition of growth at 1.5 ppm. `CC(=O)NCC(=O)OCC#CI`
Reply: 50%

###

System: Aspergillus niger (ANIG)
assay notes: Minimum inhibitory concentration (MIC), broth two-fold serial dilution test
Type: cell-based
test settings: Aspergillus niger, M9G (minimal salts media with glucose); Table IIIa; read-out: MIC (F) ANIG
Please respond with reported MIC for every item in the list.
Numbers only, in µg/mL.

Query: Look at this compound and give its reported MIC. `CC(C)(C)OC(=O)N[C@@H](COCc1ccccc1)C(=O)OCC#CI`
Reply: 3

Below are some compounds; for each one, tell me its MIC.
1. CC(C)(C)OC(=O)N[C@@H](CSCc1ccccc1)C(=O)OCC#CI
2. C[C@H](NC(=O)OC(C)(C)C)C(=O)OCC#CI
3. C[C@@H](OCc1ccccc1)[C@H](NC(=O)OC(C)(C)C)C(=O)OCC#CI

Reply:
3
3
25

###

Tested on: MON
assay notes: In-vitro plant fungicide test
Assay type: cell-based
test settings: .4 ppm; Table IVb; read-out: % Control at (ppm) indicated MON
Where a name gives a salt, the structure may show the parent alone.
Please respond with reported inhibition of growth at 0.4 ppm for every item in the list.
Respond with the figure and its unit, in that order.

Record excerpt, results attached:
Query: Look at this compound and give its reported inhibition of growth at 0.4 ppm. C[C@H](N)C(=O)N[C@@H](COCc1ccccc1)C(=O)OCC#CI [Compound 19, trifluoroacetate]
Reply: 0%

Query: Look at this compound and give its reported inhibition of growth at 0.4 ppm. CC(C)(C)OC(=O)NCC(=O)OCC#CI [Compound 1]
Reply: 0%

Query: Look at this compound and give its reported inhibition of growth at 0.4 ppm. CC(=O)NCC(=O)OCC#CI [Compound 28, N-acetylglycine iodopropargyl ester]
Reply: 0%

Consider the additional compound presented here.
Query: Look at this compound and give its reported inhibition of growth at 0.4 ppm. O=C(CN1C(=O)c2ccccc2C1=O)OCC#CI [Compound 30, N-phthaloylglycine iodopropargyl ester]
Reply: 100%
